Value source: patent US20060135569A1

Test system: TA98
Test: Ames test, strain TA98
Assay type: cell-based
Conditions: 0.5 μg/dish
measured metric: TA98 +S9

{"columns": ["smiles code", "value reported"],
 "data": [
  ["C/C(=N\\O)c1ccc(-n2[se]c3ccccc3c2=O)cc1", 56.50],
  ["O=c1c2cc(F)ccc2[se]n1-c1ccccn1", 73.67],
  ["O=c1c2cc(F)ccc2[se]n1-c1cccnc1", 40.67],
  ["O=c1c2cc(Cl)ccc2[se]n1-c1ccccn1", 70.67],
  ["O=c1c2ccc(Cl)cc2[se]n1-c1ccncc1", 49.33]
]}

* * *

// reported TA98 +S9 for each item listed
Test system: TA98
Assay: Ames test, strain TA98
Assay type: cell-based
Conditions: 500 μg/dish
measured metric: TA98 +S9

{"columns": ["compound", "value reported"],
 "data": [
  ["O=c1c2cc(Cl)ccc2[se]n1-c1ccccn1 [IMM-004]", 55.33],
  ["O=c1c2cc(F)ccc2[se]n1-c1cccnc1 [IMM-128]", 31.33],
  ["O=c1c2cc(F)ccc2[se]n1-c1ccccn1 [IMM-127]", 42.67],
  ["C/C(=N\\O)c1ccc(-n2[se]c3ccccc3c2=O)cc1 [IMM-065]", 168.00],
  ["O=c1c2ccc(Cl)cc2[se]n1-c1ccncc1 [IMM-313]", 0]
]}

* * *

System: TA98
Test: Ames test, strain TA98
Type: cell-based
Details: 500 μg/dish
The label depends only on TA98 −S9: fulfilled if it is at least 80, not fulfilled if it is smaller.

{"columns": ["smiles code", "discrete label"],
 "data": [
  ["O=c1c2cc(F)ccc2[se]n1-c1ccccn1", "fulfilled"],
  ["O=c1c2cc(Cl)ccc2[se]n1-c1ccccn1", "not fulfilled"],
  ["O=c1c2ccc(Cl)cc2[se]n1-c1ccncc1", "fulfilled"],
  ["O=c1c2cc(F)ccc2[se]n1-c1cccnc1", "fulfilled"],
  ["C/C(=N\\O)c1ccc(-n2[se]c3ccccc3c2=O)cc1", "not fulfilled"]
]}

* * *

Overview of recorded Inhibitory rate of outward INa—Ca (%) for various compounds
Biological target: Na^+/Ca^2+ exchanger (Cavia porcellus, UniProt P48766)
Construct: endogenous in cells; host or cells: freshly isolated guinea pig ventricular myocytes
Experiment: Na^+/Ca^2+ exchange current (INa—Ca), whole-cell patch clamp, intracellular Na^+ overload cell model
Format: cell-based, guinea pig
Details: Example 1 table, myocardial cell

{"columns": ["smiles code", "measurement target", "Inhibitory rate of outward INa—Ca (%)"],
 "data": [
  ["O=c1c2cc(F)ccc2[se]n1-c1cccnc1", "Na^+/Ca^2+ exchanger (Cavia porcellus, UniProt P48766)", 44],
  ["O=c1c2cc(F)ccc2[se]n1-c1ccccn1", "Na^+/Ca^2+ exchanger (Cavia porcellus, UniProt P48766)", 43],
  ["O=c1c2ccc(Cl)cc2[se]n1-c1ccncc1", "Na^+/Ca^2+ exchanger (Cavia porcellus, UniProt P48766)", 50],
  ["C/C(=N\\O)c1ccc(-n2[se]c3ccccc3c2=O)cc1", "Na^+/Ca^2+ exchanger (Cavia porcellus, UniProt P48766)", 55],
  ["O=c1c2cc(F)ccc2[se]n1-c1ccncc1", "Na^+/Ca^2+ exchanger (Cavia porcellus, UniProt P48766)", 59],
  ["O=c1c2cc(Cl)ccc2[se]n1-c1ccncc1", "Na^+/Ca^2+ exchanger (Cavia porcellus, UniProt P48766)", 44],
  ["O=c1c2cc(Cl)ccc2[se]n1-c1ccccn1", "Na^+/Ca^2+ exchanger (Cavia porcellus, UniProt P48766)", 52]
]}
